Hello, the source for this data is paper PMC9476207, in case you need it.

Test system: M14
test-name: NCI-60 single-dose antiproliferative screen
Type: cell-based
applied-conditions: Homo sapiens, M14, 48 h, read-out: growth percent

>  <compound>
COc1cc(CNC(=O)CCCC/C=C/C(C)C)ccc1OCc1cn(-c2ccccc2Cl)nn1 [14c]

>  <assay-target>
M14

>  <activity at 10 µM>
92.6%

$$$$
>  <compound>
CCc1ccc(-n2cc(COc3ccc(CNC(=O)CCCC/C=C/C(C)C)cc3OC)nn2)cc1 [14o]

>  <assay-target>
M14

>  <activity at 10 µM>
99.8%

$$$$
>  <compound>
COc1cc(CNC(=O)CCCC/C=C/C(C)C)ccc1OCc1cn(-c2cc(OC)c(OC)c(OC)c2)nn1 [14m]

>  <assay-target>
M14

>  <activity at 10 µM>
94.5%

$$$$
>  <compound>
COc1cc(CNC(=O)CCCC/C=C/C(C)C)ccc1OCc1cn(-c2ccc(C#N)cc2)nn1 [14j]

>  <assay-target>
M14

>  <activity at 10 µM>
95.3%

$$$$
>  <compound>
COc1cc(CNC(=O)CCCC/C=C/C(C)C)ccc1OCc1cn(-c2ccccc2F)nn1 [14i]

>  <assay-target>
M14

>  <activity at 10 µM>
96.8%

$$$$
>  <compound>
COc1cc(CNC(=O)CCCC/C=C/C(C)C)ccc1OCc1cn(-c2cccc(Cl)c2)nn1 [14b]

>  <assay-target>
M14

>  <activity at 10 µM>
94.1%

$$$$
>  <compound>
COc1cc(CNC(=O)CCCC/C=C/C(C)C)ccc1OCc1cn(-c2ccc(Cl)cc2)nn1 [14a]

>  <assay-target>
M14

>  <activity at 10 µM>
90.6%

$$$$
>  <compound>
COc1cc(CNC(=O)CCCC/C=C/C(C)C)ccc1OCc1cn(-c2ccccc2OC)nn1 [14l]

>  <assay-target>
M14

>  <activity at 10 µM>
96.7%

$$$$

---

Tested on: IGROV1
test-name: NCI-60 single-dose antiproliferative screen
Assay type: cell-based
applied-conditions: Homo sapiens, IGROV-1, 48 h, read-out: growth percent

>  <molecule>
COc1cc(CNC(=O)CCCC/C=C/C(C)C)ccc1OCc1cn(-c2ccc(C#N)cc2)nn1 [14j]

>  <activity at 10 µM [%]>
100

$$$$
>  <molecule>
COc1cc(CNC(=O)CCCC/C=C/C(C)C)ccc1OCc1cn(-c2ccccc2F)nn1 [14i]

>  <activity at 10 µM [%]>
101

$$$$
>  <molecule>
COc1cc(CNC(=O)CCCC/C=C/C(C)C)ccc1OCc1cn(-c2ccc(C)c(C)c2)nn1 [14p]

>  <activity at 10 µM [%]>
98.8

$$$$
>  <molecule>
COc1cc(CNC(=O)CCCC/C=C/C(C)C)ccc1OCc1cn(-c2ccc(C(F)(F)F)cc2)nn1 [14g]

>  <activity at 10 µM [%]>
58.7

$$$$
>  <molecule>
COc1cc(CNC(=O)CCCC/C=C/C(C)C)ccc1OCc1cn(-c2cccc(Cl)c2)nn1 [14b]

>  <activity at 10 µM [%]>
79.9

$$$$
>  <molecule>
COc1cc(CNC(=O)CCCC/C=C/C(C)C)ccc1OCc1cn(-c2cc(OC)c(OC)c(OC)c2)nn1 [14m]

>  <activity at 10 µM [%]>
103

$$$$
>  <molecule>
CCc1ccc(-n2cc(COc3ccc(CNC(=O)CCCC/C=C/C(C)C)cc3OC)nn2)cc1 [14o]

>  <activity at 10 µM [%]>
102

$$$$
>  <molecule>
COc1cc(CNC(=O)C[C@H](C)CCC=C(C)C)ccc1OCc1cn(-c2ccc(Cl)cc2)nn1 [18b]

>  <activity at 10 µM [%]>
80.2

$$$$
>  <molecule>
COc1cc(CNC(=O)CCCC/C=C/C(C)C)ccc1OCc1cn(-c2ccc([N+](=O)[O-])cc2)nn1 [14e]

>  <activity at 10 µM [%]>
90.4

$$$$

---

Test system: OVCAR-4
test-name: NCI-60 single-dose antiproliferative screen
Type: cell-based
applied-conditions: Homo sapiens, OVCAR-4, 48 h, read-out: growth percent
measured-endpoint: activity at 10 µM (%)

>  <compound>
COc1cc(CNC(=O)CCCC/C=C/C(C)C)ccc1OCc1cn(-c2cc(OC)c(OC)c(OC)c2)nn1 [14m]

>  <measured-endpoint>
activity at 10 µM

>  <measured-number>
103

$$$$
>  <compound>
COc1cc(CNC(=O)CCCC/C=C/C(C)C)ccc1OCc1cn(-c2ccccc2F)nn1 [14i]

>  <measured-endpoint>
activity at 10 µM

>  <measured-number>
84.2

$$$$
>  <compound>
COc1cc(CNC(=O)C[C@H](C)CCC=C(C)C)ccc1OCc1cn(-c2ccc(Cl)cc2)nn1 [18b]

>  <measured-endpoint>
activity at 10 µM

>  <measured-number>
52.7

$$$$
>  <compound>
COc1cc(CNC(=O)CCCC/C=C/C(C)C)ccc1OCc1cn(-c2ccc(C)cc2)nn1 [14n]

>  <measured-endpoint>
activity at 10 µM

>  <measured-number>
88.8

$$$$
>  <compound>
COc1cc(CNC(=O)CCCC/C=C/C(C)C)ccc1OCc1cn(-c2ccccc2OC)nn1 [14l]

>  <measured-endpoint>
activity at 10 µM

>  <measured-number>
100

$$$$
>  <compound>
COc1cc(CNC(=O)CCCC/C=C/C(C)C)ccc1OCc1cn(-c2ccc(C)c(C)c2)nn1 [14p]

>  <measured-endpoint>
activity at 10 µM

>  <measured-number>
84.9

$$$$
>  <compound>
COc1cc(CNC(=O)CCCC/C=C/C(C)C)ccc1OCc1cn(-c2ccc(Cl)c(Cl)c2)nn1 [14d]

>  <measured-endpoint>
activity at 10 µM

>  <measured-number>
69.5

$$$$
>  <compound>
CCc1ccc(-n2cc(COc3ccc(CNC(=O)CCCC/C=C/C(C)C)cc3OC)nn2)cc1 [14o]

>  <measured-endpoint>
activity at 10 µM

>  <measured-number>
89

$$$$
>  <compound>
COc1cc(CNC(=O)CCCC/C=C/C(C)C)ccc1OCc1cn(-c2ccc(Br)cc2)nn1 [14k]

>  <measured-endpoint>
activity at 10 µM

>  <measured-number>
89.2

$$$$

---

Test system: K-562
test-name: NCI-60 single-dose antiproliferative screen
Assay type: cell-based
applied-conditions: Homo sapiens, K562, 48 h, read-out: growth percent
Reported activity at 10 µM values follow for various molecules

>  <molecule>
COc1cc(CNC(=O)CCCC/C=C/C(C)C)ccc1OCc1cn(-c2ccc(C)c(C)c2)nn1 [14p]

>  <activity at 10 µM>
74.6%

$$$$
>  <molecule>
COc1cc(CNC(=O)CCCC/C=C/C(C)C)ccc1OCc1cn(-c2cc(OC)c(OC)c(OC)c2)nn1 [14m]

>  <activity at 10 µM>
79.7%

$$$$
>  <molecule>
COc1cc(CNC(=O)CCCC/C=C/C(C)C)ccc1OCc1cn(-c2ccc(Br)cc2)nn1 [14k]

>  <activity at 10 µM>
59.2%

$$$$
>  <molecule>
COc1cc(CNC(=O)CCCC/C=C/C(C)C)ccc1OCc1cn(-c2ccc(F)cc2)nn1 [14h]

>  <activity at 10 µM>
68.7%

$$$$

---

Test system: UACC-62
test-name: NCI-60 single-dose antiproliferative screen
Type: cell-based
applied-conditions: Homo sapiens, UACC-62, 48 h, read-out: growth percent

>  <compound>
COc1cc(CNC(=O)CCCC/C=C/C(C)C)ccc1OCc1cn(-c2ccc(C#N)cc2)nn1 [14j]

>  <assay-target>
UACC-62

>  <unit-of-measurement>
%

>  <activity at 10 µM>
81.8

$$$$
>  <compound>
COc1cc(CNC(=O)CCCC/C=C/C(C)C)ccc1OCc1cn(-c2ccccc2OC)nn1 [14l]

>  <assay-target>
UACC-62

>  <unit-of-measurement>
%

>  <activity at 10 µM>
75.1

$$$$
>  <compound>
CCc1ccc(-n2cc(COc3ccc(CNC(=O)CCCC/C=C/C(C)C)cc3OC)nn2)cc1 [14o]

>  <assay-target>
UACC-62

>  <unit-of-measurement>
%

>  <activity at 10 µM>
71.4

$$$$
>  <compound>
COc1cc(CNC(=O)CCCC/C=C/C(C)C)ccc1OCc1cn(-c2ccccc2Cl)nn1 [14c]

>  <assay-target>
UACC-62

>  <unit-of-measurement>
%

>  <activity at 10 µM>
73.3

$$$$
>  <compound>
COc1cc(CNC(=O)CCCC/C=C/C(C)C)ccc1OCc1cn(-c2ccc(C)cc2)nn1 [14n]

>  <assay-target>
UACC-62

>  <unit-of-measurement>
%

>  <activity at 10 µM>
70.2

$$$$
>  <compound>
COc1cc(CNC(=O)CCCC/C=C/C(C)C)ccc1OCc1cn(-c2ccc(C)c(C)c2)nn1 [14p]

>  <assay-target>
UACC-62

>  <unit-of-measurement>
%

>  <activity at 10 µM>
75.1

$$$$
>  <compound>
COc1cc(CNC(=O)CCCC/C=C/C(C)C)ccc1OCc1cn(-c2ccc([N+](=O)[O-])cc2)nn1 [14e]

>  <assay-target>
UACC-62

>  <unit-of-measurement>
%

>  <activity at 10 µM>
69.3

$$$$
>  <compound>
COc1cc(CNC(=O)CCCC/C=C/C(C)C)ccc1OCc1cn(-c2ccc(Br)cc2)nn1 [14k]

>  <assay-target>
UACC-62

>  <unit-of-measurement>
%

>  <activity at 10 µM>
63

$$$$
>  <compound>
COc1cc(CNC(=O)CCCC/C=C/C(C)C)ccc1OCc1cn(-c2ccc(C(F)(F)F)cc2)nn1 [14g]

>  <assay-target>
UACC-62

>  <unit-of-measurement>
%

>  <activity at 10 µM>
84.3

$$$$
>  <compound>
COc1cc(CNC(=O)C[C@H](C)CCC=C(C)C)ccc1OCc1cn(-c2ccc(Cl)cc2)nn1 [18b]

>  <assay-target>
UACC-62

>  <unit-of-measurement>
%

>  <activity at 10 µM>
65.7

$$$$
>  <compound>
COc1cc(CNC(=O)CCCC/C=C/C(C)C)ccc1OCc1cn(-c2ccccc2F)nn1 [14i]

>  <assay-target>
UACC-62

>  <unit-of-measurement>
%

>  <activity at 10 µM>
76.2

$$$$
>  <compound>
COc1cc(CNC(=O)CCCC/C=C/C(C)C)ccc1OCc1cn(-c2cccc(Cl)c2)nn1 [14b]

>  <assay-target>
UACC-62

>  <unit-of-measurement>
%

>  <activity at 10 µM>
75

$$$$
>  <compound>
COc1cc(CNC(=O)CCCC/C=C/C(C)C)ccc1OCc1cn(-c2ccc(Cl)c(Cl)c2)nn1 [14d]

>  <assay-target>
UACC-62

>  <unit-of-measurement>
%

>  <activity at 10 µM>
75.6

$$$$
>  <compound>
COc1cc(CNC(=O)CCCC/C=C/C(C)C)ccc1OCc1cn(-c2ccc(Cl)cc2)nn1 [14a]

>  <assay-target>
UACC-62

>  <unit-of-measurement>
%

>  <activity at 10 µM>
67.8

$$$$
>  <compound>
COc1cc(CNC(=O)CCCC/C=C/C(C)C)ccc1OCc1cn(-c2cccc([N+](=O)[O-])c2)nn1 [14f]

>  <assay-target>
UACC-62

>  <unit-of-measurement>
%

>  <activity at 10 µM>
70

$$$$
>  <compound>
COc1cc(CNC(=O)CCCC/C=C/C(C)C)ccc1OCc1cn(-c2cc(OC)c(OC)c(OC)c2)nn1 [14m]

>  <assay-target>
UACC-62

>  <unit-of-measurement>
%

>  <activity at 10 µM>
87.8

$$$$
>  <compound>
COc1cc(CNC(=O)CCCC/C=C/C(C)C)ccc1OCc1cn(-c2ccc(F)cc2)nn1 [14h]

>  <assay-target>
UACC-62

>  <unit-of-measurement>
%

>  <activity at 10 µM>
71.9

$$$$
